# experimentalProtocol: NCI Yeast Anticancer Drug Screen. Data for the mlh1 rad18 strain (AID 175)
# studyConditions: S. cerevisiae mlh1 rad18 strain growth inhibition; at 5.0 µM (retest, dose inferred, filed as 0.5); hits give high values
This is part of a sample that, as a whole, favours compounds with a hit. Of some 79,000 tested, about 15% had one in any assay.
endpointName: growth inhibition (%)

>>> df
                                    compound       endpointname  unitssymbol  recordedresult
 0  C=C(C)C(=O)OC1CC2=CC(CC3(C)OC3C3OC(=O)C(=C)C13)OC2=O (stereo not given)  growth inhibition            %               4
 1  O=C(Nc1ccc(S(=O)(=O)NC2CCCCC2)cc1)OCc1ccccc1  growth inhibition            %              91
 2     O=C1OC2(Cc3ccccc31)c1ccccc1-c1ccccc12  growth inhibition            %             -19
 3  Cc1ccc(N2C(=O)C(C)SC23C(=O)Nc2ccc(Cl)cc23)cc1 (stereo not given)  growth inhibition            %               1
 4  C[CH2][Ge]([CH2]C)([CH2]C)[O]C(=O)C([O][Ge]([CH2]C)([CH2]C)[CH2]C)c1ccccc1 (stereo not given)  growth inhibition            %              23
 5        COc1ccc(CN(C)c2c(C)ccc3ccccc23)cc1  growth inhibition            %               3
 6  CCCCNC(=S)NC1C2CC3CC(C2)CC1C3 (stereo not given)  growth inhibition            %             -13
 7  CCCCC(CCc1ccccc1)(C(=O)O)c1ccccc1 (stereo not given)  growth inhibition            %              92
 8      CC(=O)Nc1ccc2c(c1)C(=O)c1cccc(F)c1-2  growth inhibition            %               3
 9  O=C(Cl)c1cc(-c2ccc(Cl)cc2)nc2c(Cl)cccc12  growth inhibition            %               9
10  CC(C(=O)O)c1cn(Cc2ccccc2)c2ccccc12 (stereo not given)  growth inhibition            %               6
11  FC(F)(F)C(C1=NC(C(F)(F)F)(C(F)(F)F)N=C(N2CCOCC2)O1)C(F)(F)F  growth inhibition            %              51
12  Cc1c(NC(=O)C(=O)N=NC(=O)c2ccncc2)c(O)c2ccccc2c1O  growth inhibition            %              -6
13  Nc1ccc(S(=O)(=O)Nc2nc3ccccc3nc2N2CCCCCC2)cc1  growth inhibition            %              39
14  O=C1NC(c2cccc3ccccc23)Nc2ccc(Cl)cc21 (stereo not given)  growth inhibition            %              20
15  COC(=O)c1nc(=S)[nH]c(C(=O)OC)c1C(=O)c1ccccn1  growth inhibition            %             -15
16         c1ccc(CN2CCc3[nH]c4ccccc4c3C2)cc1  growth inhibition            %              -3
17  CCN(CC)CC(C)(C)C(=O)/C=C/c1ccc(Cl)c(Cl)c1  growth inhibition            %               8
18          O=CNc1ccc2c(c1)Cc1cc(NC=O)ccc1-2  growth inhibition            %              14
19  CC(C)/C(Cl)=N\OC(=O)Nc1ccc(S(N)(=O)=O)cc1  growth inhibition            %              22
20           c1ccc(-c2cnc3nc4ccccc4nc3n2)cc1  growth inhibition            %               7
21            Cc1c(C#N)c(N)nc2c(C(N)=O)nsc12  growth inhibition            %              -1
22  CCC(c1cccc(O)c1)C(CC)c1cccc(O)c1 (stereo not given)  growth inhibition            %              17
23  COc1ccc(CC2C(=O)NC(C)C(=O)N(C)C3Cc4ccc(cc4)Oc4cc(ccc4O)CC(C(=O)NC(C)C(=O)NC(C)C(=O)N2C)N(C)C3=O)cc1 (stereo not given)  growth inhibition            %              -1
24       Cc1cccc(Nc2c3c(nc4ccccc24)CCCCC3)c1  growth inhibition            %              -5
25  CCC(=O)N1c2ccccc2CC1c1c[nH]c2ccccc12 (stereo not given)  growth inhibition            %               1
26  C[N+](C)([O-])CCOc1cc2c(c3ccccc13)-c1ccccc1C2=O  growth inhibition            %               1
27  COC(=O)c1[nH]c(=O)c(C#N)c(C(=O)OC)c1C(=O)c1ccc2ccccc2c1  growth inhibition            %              12
28                 Clc1ccc(/C=C\c2ccncc2)cc1  growth inhibition            %              -1
29                     CCc1ccc(-c2ccccc2)cc1  growth inhibition            %               0
30  CCCCCCCCCCCCCCCCCC(=O)OCC(O)COC(=O)CCCCCCCCCCCCCCCCC  growth inhibition            %               2
31  C[C-](O)O.O/C(=C\[C-](O)c1ccccc1)c1ccccc1.O/C(=C\[C-](O)c1ccccc1)c1ccccc1.[Nd+3] (stereo not given)  growth inhibition            %              30
32   Cc1cc(Cl)c2c(c1)C(=N/O)/C(=C\c1ccco1)O2  growth inhibition            %              99
33  CCCCCCCCCCCC(=O)OCC1OC(n2cc(F)c(=O)[nH]c2=O)C(N)C(O)C1O (stereo not given)  growth inhibition            %              24
34  N#CC(C#N)C(C#N)c1ccc(Cl)c(Cl)c1 (stereo not given)  growth inhibition            %              70
35      CN(C)CCCNc1ccc(O)c2sc3ccccc3c(=O)c12  growth inhibition            %               0
36               C=CCOc1ccc(N=NC(C#N)C#N)cc1  growth inhibition            %               4
37          COc1ccc(/C=C(\C#N)c2ccccc2)cc1OC  growth inhibition            %              -6
38             CC(C)c1ccc(C(=O)OC2CCCCC2)cc1  growth inhibition            %               2
39            CSc1nc(SC)c2cnn(Cc3ccccc3)c2n1  growth inhibition            %              18
40  CCN(CC)CCOC(=O)c1ccc(N=Nc2cc(Cl)c(C)cc2O)cc1  growth inhibition            %              28
41  CC(=O)OC1(C)C(=C(Cl)Cl)C2c3ccccc3C1c1ccccc12 (stereo not given)  growth inhibition            %              10
42  C=C(CCC(C)C1CCC2(C)C3=C(CC(O)C12C)C1(C)CCC(O)C(C)(C)C1CC3)C(C)C(=O)O (stereo not given)  growth inhibition            %              30
43      CCc1cc2c([nH]c3ccccc32)c(C)c1CCN(C)C  growth inhibition            %              -5
44  Cc1ccc(-c2c(C#N)c(-c3ccccc3)n(NS(=O)(=O)c3ccc(C)cc3)c(=O)c2C#N)cc1  growth inhibition            %              34
